Origin of values: paper PMC5986654

- system tested: GCN5 (Homo sapiens)
- Sequence (Q92830 whole entry): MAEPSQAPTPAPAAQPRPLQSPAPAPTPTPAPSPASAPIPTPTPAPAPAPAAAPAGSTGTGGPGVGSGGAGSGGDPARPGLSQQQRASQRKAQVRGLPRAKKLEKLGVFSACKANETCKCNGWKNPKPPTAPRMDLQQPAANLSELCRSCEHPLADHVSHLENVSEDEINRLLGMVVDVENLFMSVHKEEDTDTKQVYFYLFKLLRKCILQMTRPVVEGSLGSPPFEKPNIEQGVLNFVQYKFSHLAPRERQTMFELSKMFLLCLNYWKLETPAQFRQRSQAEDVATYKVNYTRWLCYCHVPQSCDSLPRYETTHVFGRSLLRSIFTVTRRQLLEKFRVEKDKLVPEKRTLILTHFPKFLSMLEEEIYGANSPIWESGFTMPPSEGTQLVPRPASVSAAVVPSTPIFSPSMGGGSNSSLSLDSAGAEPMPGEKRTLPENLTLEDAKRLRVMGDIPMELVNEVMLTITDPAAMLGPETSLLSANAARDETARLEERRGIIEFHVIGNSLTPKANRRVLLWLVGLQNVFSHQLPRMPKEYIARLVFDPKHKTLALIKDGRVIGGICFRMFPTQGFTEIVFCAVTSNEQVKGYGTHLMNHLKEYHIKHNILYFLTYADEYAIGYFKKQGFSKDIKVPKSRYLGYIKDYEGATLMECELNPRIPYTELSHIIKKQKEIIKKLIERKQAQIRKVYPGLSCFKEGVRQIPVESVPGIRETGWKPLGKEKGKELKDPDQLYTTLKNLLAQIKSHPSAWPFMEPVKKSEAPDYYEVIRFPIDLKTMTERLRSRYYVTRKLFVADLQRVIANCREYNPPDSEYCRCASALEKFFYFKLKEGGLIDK
assay endpoint: IC50

Short answer please: IC50, GCN5 (Homo sapiens), entry CCCCCCCCCCCCCCCc1cccc(O)c1C(=O)O
38.6 µM

====

- assay details: Stability of MC2884 in cell culture medium (RP-HPLC)
- Type: physicochemical
- test context: DMEM cell culture medium, read-out: half-life in cell culture media (converted)
assay endpoint: half-life at 50 µM (h)
Write the number in h without appending the unit.

Which half-life at 50 µM is listed for O=C1/C(=C/c2cccc(Br)c2)CN(Cc2ccccc2)C/C1=C\c1cccc(Br)c1 ?
10

====

- system tested: CYP2C19 (Homo sapiens, UniProt P33261)
- Sequence (P33261 whole entry): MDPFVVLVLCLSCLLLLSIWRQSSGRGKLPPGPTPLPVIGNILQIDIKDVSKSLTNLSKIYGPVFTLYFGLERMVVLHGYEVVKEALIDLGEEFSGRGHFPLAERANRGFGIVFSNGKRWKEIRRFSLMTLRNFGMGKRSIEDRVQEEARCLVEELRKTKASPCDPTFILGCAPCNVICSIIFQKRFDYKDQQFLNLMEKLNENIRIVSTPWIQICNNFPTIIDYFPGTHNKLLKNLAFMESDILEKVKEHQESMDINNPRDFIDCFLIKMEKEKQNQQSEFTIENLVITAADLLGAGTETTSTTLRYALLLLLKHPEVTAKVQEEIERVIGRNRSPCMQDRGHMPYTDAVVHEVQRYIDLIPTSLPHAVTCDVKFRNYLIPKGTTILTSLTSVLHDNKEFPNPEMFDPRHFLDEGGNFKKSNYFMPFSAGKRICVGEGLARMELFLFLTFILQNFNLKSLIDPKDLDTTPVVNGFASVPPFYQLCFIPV
pIC50: −log10 of the molar value.
assay endpoint: pIC50

Short answer please: pIC50, CYP2C19 (Homo sapiens, UniProt P33261), entry O=C1/C(=C/c2cccc(Br)c2)CN(Cc2ccccc2)C/C1=C\c1cccc(Br)c1
< 4.60

====

- Tested on: leukemia NB4 cells
- assay details: Cell death induction in NB4 cells (FACS, pre-G1)
- Assay type: cell-based, human
- test context: 3 μM, 30 h
A collection of compounds and their measured % Cell death NB4 cells

>>> print(df.to_string())
                                smiles_repr       system_tested          assay_endpoint  assay_value
0  O=C1/C(=C/c2cccc(Br)c2)CCC/C1=C\c1cccc(Br)c1  leukemia NB4 cells  % Cell death NB4 cells        0,76%
1  O=C1/C(=C/c2ccc(O)cc2Br)CN(Cc2ccccc2)C/C1=C\c1ccc(O)cc1Br  leukemia NB4 cells  % Cell death NB4 cells        0,53%

Proceed to the following item.
Which % Cell death NB4 cells is listed for O=C(/C=C/c1ccc(Br)cc1)/C=C/c1ccc(Br)cc1 ?
0,56%
